PROTOCOL_DETAILS: Oral bioavailability in dog
Format: ADME, organism-based, Canis lupus familiaris
MEASUREMENT_PARAMETERS: in vivo
MEASUREMENT_TYPE: bioavailability (%)
One number for each entry, in %.

Request: Could you tell me which bioavailability is on file for CCc1cc2ncc(CN3CCN(c4ccc(C(=O)NC)nc4)CC3)cc2[nH]c1=O [SARUPARIB] ?
Result: 73

====

PROTOCOL_DETAILS: Plasma clearance in dog
Assay type: ADME, Canis lupus familiaris
MEASUREMENT_TYPE: clearance (L/h/kg)
Numbers only, in L/h/kg.

Request: Could you tell me which clearance is on file for "CCc1cc2ncc(CN3CCN(c4ccc(C(=O)NC)nc4)CC3)cc2[nH]c1=O" ?
Result: 0.021

====

SUBJECT_OF_TEST: Poly [ADP-ribose] polymerase tankyrase-1 (Homo sapiens, UniProt O95271)
Sequence (O95271 whole entry): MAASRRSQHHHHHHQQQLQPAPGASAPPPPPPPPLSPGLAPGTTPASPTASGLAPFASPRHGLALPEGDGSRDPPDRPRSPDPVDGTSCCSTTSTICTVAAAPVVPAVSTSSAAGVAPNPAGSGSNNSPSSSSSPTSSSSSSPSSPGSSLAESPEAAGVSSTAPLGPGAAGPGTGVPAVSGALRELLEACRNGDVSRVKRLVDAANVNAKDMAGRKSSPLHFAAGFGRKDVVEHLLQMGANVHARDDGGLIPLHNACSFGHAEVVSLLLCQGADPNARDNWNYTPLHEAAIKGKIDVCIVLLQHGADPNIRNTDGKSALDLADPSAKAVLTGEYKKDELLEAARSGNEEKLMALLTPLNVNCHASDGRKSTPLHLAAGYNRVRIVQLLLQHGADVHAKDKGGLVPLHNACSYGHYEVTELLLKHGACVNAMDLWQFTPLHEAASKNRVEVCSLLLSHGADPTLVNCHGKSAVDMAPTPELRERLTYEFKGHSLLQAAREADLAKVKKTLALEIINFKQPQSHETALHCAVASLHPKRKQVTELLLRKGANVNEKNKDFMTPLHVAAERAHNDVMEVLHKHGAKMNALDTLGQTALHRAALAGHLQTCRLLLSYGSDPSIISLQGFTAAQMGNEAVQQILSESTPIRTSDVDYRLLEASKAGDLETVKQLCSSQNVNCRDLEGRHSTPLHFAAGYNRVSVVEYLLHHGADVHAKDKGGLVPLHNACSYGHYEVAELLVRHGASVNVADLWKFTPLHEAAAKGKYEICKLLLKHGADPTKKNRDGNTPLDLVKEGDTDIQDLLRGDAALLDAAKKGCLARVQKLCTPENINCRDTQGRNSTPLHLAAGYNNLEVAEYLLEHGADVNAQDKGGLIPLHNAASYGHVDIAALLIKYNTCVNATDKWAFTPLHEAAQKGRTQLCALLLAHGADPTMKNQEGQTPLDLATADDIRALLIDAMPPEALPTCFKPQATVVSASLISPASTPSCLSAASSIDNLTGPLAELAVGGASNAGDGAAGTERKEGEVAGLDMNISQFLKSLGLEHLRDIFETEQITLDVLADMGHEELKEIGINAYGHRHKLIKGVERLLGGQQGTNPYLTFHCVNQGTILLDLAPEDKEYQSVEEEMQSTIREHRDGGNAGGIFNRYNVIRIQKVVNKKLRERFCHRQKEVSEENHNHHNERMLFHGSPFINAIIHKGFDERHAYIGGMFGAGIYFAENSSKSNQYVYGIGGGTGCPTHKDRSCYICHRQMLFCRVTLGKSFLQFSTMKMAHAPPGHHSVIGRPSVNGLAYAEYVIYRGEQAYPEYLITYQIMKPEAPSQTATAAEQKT
MEASUREMENT_TYPE: IC50

Request: # value lookup — system Poly [ADP-ribose] polymerase tankyrase-1 (Homo sapiens, UniProt O95271), readout IC50, item "NC(=O)c1cc(F)cc2c1C(=O)N(C1CCN(C3CCC(F)(F)CC3)CC1)C2"
Result: > 100 µM

====

PROTOCOL_DETAILS: physchem
MEASUREMENT_PARAMETERS: buffer, pH 7.4
Class boundaries, taken from values of logD, are as follows: low: < 2; intermediate: ≥ 2 and < 3; high: ≥ 3

Request: Classify this compound: "CCc1cc2ccc(CN3CCN(c4cnc(C(=O)NC)nc4)CC3)cc2[nH]c1=O"
Result: low

Request: Classify this compound: "CCc1cc2ccc(CN3CCN(c4cnc(C(=O)NC)cn4)CC3)cc2[nH]c1=O"
Result: intermediate

Request: Classify this compound: "O=c1[nH]c(CCCN2CC=C(c3ccc(F)cc3)CC2)nc2c(Cl)cccc12"
Result: high

Request: Classify this compound: "Cc1cnc(N2CCN(Cc3ccc4c5c(c(=O)[nH]c4c3)COCC5)CC2)n1C"
Result: low

Request: Classify this compound: "O=c1[nH]c(CCCN2CCN(c3ccc(F)cc3F)CC2)nc2c(Cl)cccc12"
Result: high

Request: Classify this compound: "Cc1cnc(N2CCN(Cc3ccc4c(c3)[nH]c(=O)c3ncccc34)CC2)n1C"
Result: low

Request: Classify this compound: "CCc1cc2ncc(CN3CCN(c4ccc(C(=O)NC)nc4)CC3)cc2[nH]c1=O"
Result: low

Request: Classify this compound: "CCc1cc2ccc(CN3CCN(c4ccc(C(=O)NC)nc4)CC3)cc2[nH]c1=O"
Result: intermediate

Request: Classify this compound: "Cc1cnc(N2CCN(CCCc3nc4c(Cl)cccc4c(=O)[nH]3)CC2)n1C"
Result: intermediate

Request: Classify this compound: "CCc1cc2ccc(CN3CCN(c4ncc(C)n4C)CC3)cc2[nH]c1=O"
Result: intermediate

Request: Classify this compound: "CCc1cc2ccc(CN3CCN(c4ccc(F)cc4F)CC3)cc2[nH]c1=O"
Result: high

Request: Classify this compound: "CCc1nc2ccc(CN3CCN(c4ccc(C(=O)NC)nc4)CC3)cc2[nH]c1=O"
Result: intermediate

Request: Classify this compound: "Cc1cnc(N2CCN(Cc3ccc4c5c(c(=O)[nH]c4c3)CCCC5)CC2)n1C"
Result: high

Request: Classify this compound: "Cc1cnc(N2CCN(Cc3ccc4c(c3)[nH]c(=O)c3cccnc34)CC2)n1C"
Result: intermediate

Request: Classify this compound: "Cc1cnc(N2CCN(Cc3ccc4c(c3)[nH]c(=O)c3ccccc34)CC2)n1C"
Result: high

Request: Classify this compound: "Cc1cnc(N2CCN(Cc3ccc4c5c(c(=O)[nH]c4c3)CCCN5)CC2)n1C"
Result: intermediate

Request: Classify this compound: "CCc1cc2ccc(CN3CCN(c4ccc(C(=O)NC)nn4)CC3)cc2[nH]c1=O"
Result: intermediate

====

PROTOCOL_DETAILS: Half life in dog
Type: ADME, Canis lupus familiaris
MEASUREMENT_PARAMETERS: in vivo
MEASUREMENT_TYPE: half-life
Kindly format the answer as number then unit.

Request: Could you tell me which half-life is on file for "CCc1cc2ncc(CN3CCN(c4ccc(C(=O)NC)nc4)CC3)cc2[nH]c1=O" ?
Result: 600 min

====

SUBJECT_OF_TEST: Poly [ADP-ribose] polymerase 2 (Homo sapiens)
Sequence (Q9UGN5 whole entry): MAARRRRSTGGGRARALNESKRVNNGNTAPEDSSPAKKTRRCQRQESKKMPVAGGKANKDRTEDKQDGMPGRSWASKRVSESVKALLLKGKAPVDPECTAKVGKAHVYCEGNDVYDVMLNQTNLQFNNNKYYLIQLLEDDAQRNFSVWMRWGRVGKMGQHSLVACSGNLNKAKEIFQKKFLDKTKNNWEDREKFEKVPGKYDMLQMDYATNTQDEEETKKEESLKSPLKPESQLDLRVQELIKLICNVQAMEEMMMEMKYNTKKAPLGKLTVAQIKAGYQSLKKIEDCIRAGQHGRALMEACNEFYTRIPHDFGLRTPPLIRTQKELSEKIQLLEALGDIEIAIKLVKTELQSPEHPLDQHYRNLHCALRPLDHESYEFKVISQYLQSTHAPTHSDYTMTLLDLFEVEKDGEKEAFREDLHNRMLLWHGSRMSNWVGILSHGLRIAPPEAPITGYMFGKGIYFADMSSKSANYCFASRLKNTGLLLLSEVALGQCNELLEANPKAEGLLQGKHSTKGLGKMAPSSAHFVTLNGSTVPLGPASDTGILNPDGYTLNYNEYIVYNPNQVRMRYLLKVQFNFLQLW
PROTOCOL_DETAILS: Inhibition of human recombinant N-terminal Avi-6His-TEV tagged PARP2 full length expressed in pFastBac expression system incubated for 4 hrs by fluorescence anisotropy binding assay
For each entry below, report its IC50 value.

Take a look at these entries with their results.
Request: # value lookup — system Poly [ADP-ribose] polymerase 2 (Homo sapiens), readout IC50, item "Cc1cnc(N2CCN(Cc3ccc4c5c(c(=O)[nH]c4c3)COCC5)CC2)n1C"
Result: 6.6 µM

Request: # value lookup — system Poly [ADP-ribose] polymerase 2 (Homo sapiens), readout IC50, item "Cc1cnc(N2CCN(Cc3ccc4c5c(c(=O)[nH]c4c3)CCCC5)CC2)n1C"
Result: 0.49 µM

Request: # value lookup — system Poly [ADP-ribose] polymerase 2 (Homo sapiens), readout IC50, item "CCc1cc2ccc(CN3CCN(c4ncc(C)n4C)CC3)cc2[nH]c1=O"
Result: 4.2 µM

Request: # value lookup — system Poly [ADP-ribose] polymerase 2 (Homo sapiens), readout IC50, item "CCc1cc2ccc(CN3CCN(c4ccc(C(=O)NC)cc4)CC3)cc2[nH]c1=O"
Result: 3.9 µM

Request: # value lookup — system Poly [ADP-ribose] polymerase 2 (Homo sapiens), readout IC50, item "O=c1[nH]c(CCCN2CCN(c3ccc(F)cc3F)CC2)nc2c(Cl)cccc12"
Result: 22 µM

Report IC50 for each item below.
1. CCc1cc2ccc(CN3CCN(c4cnc(C(=O)NC)cn4)CC3)cc2[nH]c1=O
2. CCc1nc2ccc(CN3CCN(c4ccc(C(=O)NC)nc4)CC3)cc2[nH]c1=O
3. Cc1cnc(N2CCN(CCCc3nc4c(Cl)cccc4c(=O)[nH]3)CC2)n1C

Result:
5.9 µM
4.9 µM
4 µM

Report IC50 for each item below.
1. CCc1cc2ccc(CN3CCN(c4ccc(C(=O)NC)nc4)CC3)cc2[nH]c1=O
2. CCc1cc2ccc(CN3CCN(c4cnc(C(=O)NC)nc4)CC3)cc2[nH]c1=O
3. Cc1cnc(N2CCN(Cc3ccc4c(c3)[nH]c(=O)c3cccnc34)CC2)n1C
4. Cc1cnc(N2CCN(Cc3ccc4c5c(c(=O)[nH]c4c3)CCCN5)CC2)n1C
5. CCc1cc2ccc(CN3CCN(c4ccc(F)cc4F)CC3)cc2[nH]c1=O
6. Cc1cnc(N2CCN(Cc3ccc4c(c3)[nH]c(=O)c3ccccc34)CC2)n1C
7. O=c1[nH]c(CCCN2CC=C(c3ccc(F)cc3)CC2)nc2c(Cl)cccc12

Result:
1: 1.1 µM; 2: 2.4 µM; 3: 9.1 µM; 4: 1.1 µM; 5: > 26 µM; 6: 0.6 µM; 7: 20 µM

Report IC50 for each item below.
1. Cc1cnc(N2CCN(Cc3ccc4c(c3)[nH]c(=O)c3ncccc34)CC2)n1C
2. CCc1cc2ccc(CN3CCN(c4ccc(C(=O)NC)nn4)CC3)cc2[nH]c1=O

Result:
1. 28 µM
2. 7.4 µM
